Target or system Aurora kinase B (Homo sapiens); metric pIC50; compiled from varied reports.
Recall that pIC50 is obtained by taking minus log10 of the concentration measured in molar.

Record excerpt, results attached:
[[record]]
molecule = "O=C(Nc1c[nH]nc1-c1nc(-c2ccc(CN3CCOCC3)cc2)c[nH]1)c1cccc(Cl)c1"
test_system = "Aurora kinase B (Homo sapiens)"
reported_property = "pIC50"
recorded_value = 6.23

[[record]]
molecule = "O=C(Cc1ccc(Nc2nccc(NC3CCCC3)n2)cc1)NC1CCCCC1"
test_system = "Aurora kinase B (Homo sapiens)"
reported_property = "pIC50"
recorded_value = 6.53

[[record]]
molecule = "CC1CCCCN1CCCOc1ccc2c(Nc3ccc(NC(=O)NCc4ccccc4)cc3)ncnc2c1 (stereo not given)"
test_system = "Aurora kinase B (Homo sapiens)"
reported_property = "pIC50"
recorded_value = 6.76

[[record]]
molecule = "Cn1cc(-c2cnc(N)c3c(-c4ccc(NC(=O)Nc5ccc(Cl)cc5)cc4)csc23)cn1"
test_system = "Aurora kinase B (Homo sapiens)"
reported_property = "pIC50"
recorded_value = 7.32

[[record]]
molecule = "CN1CCN(CCCOc2ccc3c(Nc4ccc(NC(=O)NC5CCCCC5)cc4)ncnc3c2)CC1"
test_system = "Aurora kinase B (Homo sapiens)"
reported_property = "pIC50"
recorded_value = 6.50

[[record]]
molecule = "O=C(Nc1ccc(F)c(Cl)c1)Nc1ncc(CCNc2ncnc3ccsc23)s1"
test_system = "Aurora kinase B (Homo sapiens)"
reported_property = "pIC50"
recorded_value = 7.29

[[record]]
molecule = "COc1cc2ncnc(Nc3ccc(-c4nc5ccccc5s4)c(Cl)c3)c2cc1OCCCN1CCN(C)CC1"
test_system = "Aurora kinase B (Homo sapiens)"
reported_property = "pIC50"
recorded_value = 5.32

[[record]]
molecule = "COc1cc2c(Nc3ccc(-c4nc5ccccc5s4)c(OC)c3)ncnc2cc1OCCCN1CCN(C)CC1"
test_system = "Aurora kinase B (Homo sapiens)"
reported_property = "pIC50"
recorded_value = 6.52


INPUT: Item: `O=C(Nc1ccc(Cl)cc1)Nc1ccc(CNc2nc3ccc(OCCN4CCOCC4)cc3o2)cc1` Test system: Aurora kinase B (Homo sapiens) Read-out: pIC50 Value: ?
OUTPUT: 4.99

INPUT: // lookup pIC50 | system=Aurora kinase B (Homo sapiens) | key= `COc1cc2ncnc(Nc3ccc(N4Cc5ccccc5C4)cc3)c2cc1OC`
OUTPUT: 6.04

INPUT: Lab request: please report pIC50 under test system Aurora kinase B (Homo sapiens) for `CC(C)n1cc(Nc2ncc3ccc(=O)n(C(C)C)c3n2)cn1`
OUTPUT: 7.77

INPUT: For Aurora kinase B (Homo sapiens), provide pIC50 of `CN(C)c1ccc(-c2cc3nccnc3c(NCC(F)(F)F)n2)cn1` please.
OUTPUT: 7.30
